We begin with a simple list: items and their reported protein stability index.
B1: WEE1 (parent)
chain: INPFTPDSLLLHSSGQCRRRKRTY

- Variants of: B1
- assay_protocol: protein stability index of a GFP-peptide fusion (GPS, HEK-293T) (PSI 1-6); higher = more stable;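 also: lentivirally expressed fusions sorted by FACS into six bins by GFP to DsRed ratio, PSI derived from sequencing read proportions per bin multiplied by bin number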
- run_conditions: c terminus: a fixed tail appended
I only need the number, thanks.

Worked examples follow.
{"var": "T23C", "protein stability index": 2.7}
{"var": "R18I", "protein stability index": 2.86}
{"var": "H12Q", "protein stability index": 2.94}

Task item: Using known records, supply protein stability index for T23Y
Reply: 3.38

Task item: Using known records, supply protein stability index for T23V
Reply: 3.06

Task item: Using known records, supply protein stability index for F4V
Reply: 4.08

Task item: Using known records, supply protein stability index for T5I
Reply: 2.48

Task item: Using known records, supply protein stability index for G15E
Reply: 3.41

Task item: Using known records, supply protein stability index for D7K
Reply: 3.31

Task item: Using known records, supply protein stability index for G15R
Reply: 4.12

Task item: Using known records, supply protein stability index for F4T
Reply: 4.38
